Property Measured: logP

INSERT INTO results (smiles, observed_result) VALUES
  ('Cc1cccc2c(C)cccc12', 4.22),
  ('Cc1ccc2cc(C)ccc2c1', 4.39),
  ('Cc1cc(C)c2c(C)cccc2c1', 4.52),
  ('Cc1ccc2ccccc2c1', 3.96),
  ('Cc1ccc2c(C)c(C)ccc2c1C', 4.95),
  ('Cc1ccc(C)c2ccccc12', 4.22),
  ('Cc1ccc2cc(C)c(C)cc2c1', 4.7),
  ('Cc1ccc2c(C)ccc(C)c2c1', 4.55);
